Tested on: Mus musculus
Experiment: Toxicity in BALB/c mouse assessed as serum total proteins level at 100 mg/kg, po after 24 hrs
Format: organism-based
Design: dose 100 mg/kg, route oral
Conditions: in vivo
parameter_measured: Activity

Ask: Name the recorded Activity of the item O=C(N/N=C/c1ccc2c(c1)OCO2)c1nc(-c2ccc(Cl)cc2)no1 in your answer.
Result: 5.1 g/dL

###

Test: Therapeutic index, ratio of LC50 for BALB/c mouse splenocytes to IC50 for Trypanosoma cruzi Y
Conditions: read-out: Ratio LC50/IC50
parameter_measured: selectivity ratio
Kindly provide the number alone.

Ask: Name the recorded selectivity ratio of the item O=C(N/N=C/c1ccc2c(c1)OCO2)c1nc(-c2ccc(Cl)cc2)no1 in your answer.
Result: 50

###

System: Mus musculus
Test: Toxicity in BALB/c mouse assessed as serum total proteins level at 50 mg/kg, po after 24 hrs
Format: organism-based
Design: dose 50 mg/kg, route oral
Conditions: in vivo
parameter_measured: Activity (g/dL)
Write the value in g/dL as a bare number.

Ask: Give measured Activity for O=C(N/N=C/c1ccc2c(c1)OCO2)c1nc(-c2ccc(Cl)cc2)no1 (Mus musculus).
Result: 4.86

###

Give measured inhibition for each item. Keep answers brief.
Molecular target: UniProtKB P25779
Sequence (P25779 123-467 limits assumed): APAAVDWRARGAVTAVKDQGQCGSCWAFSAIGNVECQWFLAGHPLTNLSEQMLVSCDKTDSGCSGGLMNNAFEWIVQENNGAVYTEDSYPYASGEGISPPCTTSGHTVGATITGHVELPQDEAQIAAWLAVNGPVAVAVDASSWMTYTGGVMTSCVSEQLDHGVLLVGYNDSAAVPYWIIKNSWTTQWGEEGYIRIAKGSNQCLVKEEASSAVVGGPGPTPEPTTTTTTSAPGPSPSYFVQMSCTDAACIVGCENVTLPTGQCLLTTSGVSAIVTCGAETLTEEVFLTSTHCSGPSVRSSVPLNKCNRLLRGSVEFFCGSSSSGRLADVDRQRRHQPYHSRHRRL
Assay: Inhibition of Trypanosoma cruzi cruzain using Z-Phe-Arg-aminomethylcoumarin as substrate at 100 uM after 10 mins
Write the value in % as a bare number.

Ask: Name the recorded inhibition of the item COc1cc(/C=N/NC(=O)c2nc(-c3ccccc3)no2)ccc1O in your answer.
Result: 47

Ask: Name the recorded inhibition of the item O=C(N/N=C/c1ccc2c(c1)OCO2)c1nc(-c2ccc(F)cc2)no1 in your answer.
Result: 34

Ask: Name the recorded inhibition of the item COc1cc(/C=N/NC(=O)c2nc(-c3ccc([N+](=O)[O-])cc3)no2)ccc1O in your answer.
Result: 47

Ask: Name the recorded inhibition of the item O=C(N/N=C/c1ccc2c(c1)OCO2)c1nc(-c2ccc(Cl)cc2)no1 in your answer.
Result: 42

Ask: Name the recorded inhibition of the item COc1ccc(-c2noc(C(=O)N/N=C/c3ccc(O)c(OC)c3)n2)cc1 in your answer.
Result: 35

Ask: Name the recorded inhibition of the item Cc1ccc(-c2noc(C(=O)N/N=C/c3ccc4c(c3)OCO4)n2)cc1 in your answer.
Result: 49

Ask: Name the recorded inhibition of the item COc1ccc(-c2noc(C(=O)N/N=C/c3ccc4c(c3)OCO4)n2)cc1 in your answer.
Result: 44

Ask: Name the recorded inhibition of the item COc1cc(/C=N/NC(=O)c2nc(-c3ccc(Cl)cc3)no2)ccc1O in your answer.
Result: 92

Ask: Name the recorded inhibition of the item COc1cc(/C=N/NC(=O)c2nc(-c3ccc(F)cc3)no2)ccc1O in your answer.
Result: 63

Ask: Name the recorded inhibition of the item O=C(N/N=C/c1ccc2c(c1)OCO2)c1nc(-c2ccccc2)no1 in your answer.
Result: 32

Ask: Name the recorded inhibition of the item O=C(N/N=C/c1ccc2c(c1)OCO2)c1nc(-c2ccc(O)cc2)no1 in your answer.
Result: 17

Ask: Name the recorded inhibition of the item COc1cc(/C=N/NC(=O)c2nc(-c3ccc(C)cc3)no2)ccc1O in your answer.
Result: 14

Ask: Name the recorded inhibition of the item O=C(N/N=C/c1ccc2c(c1)OCO2)c1nc(-c2ccc(Br)cc2)no1 in your answer.
Result: 95

Ask: Name the recorded inhibition of the item COc1cc(/C=N/NC(=O)c2nc(-c3ccc(O)cc3)no2)ccc1O in your answer.
Result: 25

Ask: Name the recorded inhibition of the item COc1cc(/C=N/NC(=O)c2nc(-c3ccc(Br)cc3)no2)ccc1O in your answer.
Result: 100
